target.of.assay: UniProt:P08686
Sequence (P08686 whole entry): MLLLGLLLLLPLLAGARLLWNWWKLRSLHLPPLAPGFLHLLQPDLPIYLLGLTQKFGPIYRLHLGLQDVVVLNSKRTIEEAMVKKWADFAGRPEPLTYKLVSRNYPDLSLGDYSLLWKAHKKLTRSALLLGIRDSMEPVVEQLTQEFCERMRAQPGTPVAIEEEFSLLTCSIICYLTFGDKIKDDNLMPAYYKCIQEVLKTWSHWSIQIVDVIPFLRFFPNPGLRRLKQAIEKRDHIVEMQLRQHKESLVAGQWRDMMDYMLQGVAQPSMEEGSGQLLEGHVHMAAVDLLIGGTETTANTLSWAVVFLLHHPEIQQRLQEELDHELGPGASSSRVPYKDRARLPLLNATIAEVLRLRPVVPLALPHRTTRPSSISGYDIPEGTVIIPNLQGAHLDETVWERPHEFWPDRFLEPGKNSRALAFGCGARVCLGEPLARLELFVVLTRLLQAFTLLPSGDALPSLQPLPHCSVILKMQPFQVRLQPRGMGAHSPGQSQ
experiment.notes: Inhibition of human CYP21 transfected in HEK293 cells assessed as decrease in conversion of progesterone to 11-deoxycorticosterone preincubated for 5 hrs followed by progesterone addition measured after 20 hrs by ELISA
Format: cell-based
Parameters: concentration or dose not given beside the values
run.parameters: HEK293 cells transfected with human CYP21, probe progesterone
molecules and their reported inhibition at 20 h

                                   molecule           parameter  measured_result
0  C[C@]12CC[C@H]3[C@@H](CC4CC45C[C@@H](O)CC[C@]35C)[C@@H]1CC=C2c1cccnc1 (stereo not given in full)  inhibition at 20 h            ≥ 50%
1  Cc1cncc(C2=CC[C@H]3[C@@H]4CC=C5N(C)C(=O)C[C@]5(C)[C@H]4CC[C@]23C)c1  inhibition at 20 h        10 to 50%
2  C[C@]12CCC(=O)C=C1C(C1CC1)C[C@@H]1[C@@H]2CC[C@]2(C)C(c3cncc(F)c3)=CC[C@@H]12 (stereo not given in full)  inhibition at 20 h        10 to 50%
3  CC1C[C@@H]2[C@H](CC[C@]3(C)C(c4cccnc4)=CC[C@@H]23)[C@@]2(C)C=C/C(=N\O)C=C12 (stereo not given in full)  inhibition at 20 h        10 to 50%
4  C[C@]12CC[C@H](O)CC1CC[C@@H]1[C@@H]2CC[C@]2(C)C(c3cccnc3)CC[C@@H]12 (stereo not given in full)  inhibition at 20 h            < 10%

# evaluate next
Ask | What does the data say about its inhibition at 20 h? Entry: CCC1C[C@H]2C3=CC=C(c4cccnc4)[C@@]3(C)CC[C@@H]2[C@@]2(C)CCC(=O)C=C12 (stereo not given in full)
Reply | 10 to 50%
